- measured_target: human plasma Kallikrein (Homo sapiens)
- Construct: purchased Stratech, UK
- Sequence (P03952 20-638): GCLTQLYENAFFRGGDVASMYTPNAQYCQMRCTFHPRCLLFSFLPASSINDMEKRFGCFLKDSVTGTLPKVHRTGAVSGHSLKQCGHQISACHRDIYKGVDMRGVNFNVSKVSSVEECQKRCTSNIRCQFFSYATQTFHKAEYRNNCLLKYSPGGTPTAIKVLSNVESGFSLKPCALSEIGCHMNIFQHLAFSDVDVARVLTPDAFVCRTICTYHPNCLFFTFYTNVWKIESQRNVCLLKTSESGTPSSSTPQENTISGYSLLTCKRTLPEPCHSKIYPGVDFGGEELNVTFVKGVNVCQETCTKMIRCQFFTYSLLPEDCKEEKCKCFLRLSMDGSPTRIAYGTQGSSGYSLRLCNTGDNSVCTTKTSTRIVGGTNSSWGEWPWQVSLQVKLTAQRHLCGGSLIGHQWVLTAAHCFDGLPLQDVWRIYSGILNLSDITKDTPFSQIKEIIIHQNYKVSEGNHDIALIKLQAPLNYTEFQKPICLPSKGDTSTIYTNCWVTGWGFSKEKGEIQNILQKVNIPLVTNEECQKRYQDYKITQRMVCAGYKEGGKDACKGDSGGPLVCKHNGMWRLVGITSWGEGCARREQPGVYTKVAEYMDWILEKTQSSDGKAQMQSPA
- run_description: Functional enzyme inhibition assay with fluorogenic substrate Z-PheArg-AMC, human plasma Kallikrein
- Format: biochemical
- applied_conditions: Table 3c; ratio of Ki to wild type
Numbered stars: 1 amine (or outer) side, 2 acyl side, 3 side chain; on linkers, the order of the positions; unused ones are H or OH. Bridge positions count the residues as written; N and C are the ends. Square brackets hold non-standard residues; d marks the D form. Peptide text beside a SMILES is read from it. TBMB = c1c(C[*:1])cc(C[*:3])cc1C[*:2]
Rule: True for F (Kivar/KiWT) not less than 600, False for anything less.

Below are worked cases with known answers.
compound	label
CC(=O)N[C@H]1CSCc2cc3cc(c2)CSC[C@H](NC(=O)[C@H](CCCNC(=N)N)NC(=O)[C@H](Cc2ccc(O)cc2)NC(=O)[C@@H]2CCCN2C(=O)[C@H](Cc2ccccc2)NC(=O)[C@H](CO)NC1=O)C(=O)N[C@@H](CC(C)C)C(=O)N[C@@H](Cc1c[nH]cn1)C(=O)N[C@@H](CCC(N)=O)C(=O)N[C@@H](CC(=O)O)C(=O)N[C@H](C)C(=O)N[C@H](C(N)=O)CSC3 [Ac-(06-34-18) Phe2 Tyr4 D-Ala10] (Ac-CSFPYRCLHQD[dA]C-NH2; linker 1-7-13 via TBMB)	True
CC(=O)N[C@H]1CSCc2cc3cc(c2)CSC[C@H](NC(=O)[C@H](CCCNC(=N)N)NC(=O)[C@H](C)NC(=O)[C@@H]2CCCN2C(=O)[C@H](Cc2c[nH]c4ccccc24)NC(=O)[C@H](CO)NC1=O)C(=O)N[C@@H](CC(C)C)C(=O)N[C@@H](Cc1c[nH]cn1)C(=O)N[C@H](C)C(=O)N[C@@H](CC(=O)O)C(=O)N[C@@H](CC(C)C)C(=O)N[C@H](C(N)=O)CSC3 [Ac-(06-34-18) D-Ala8] (Ac-CSWPARCLH[dA]DLC-NH2; linker 1-7-13 via TBMB)	False
CC(=O)N[C@H]1CSCc2cc3cc(c2)CSC[C@H](NC(=O)[C@H](CCCNC(=N)N)NC(=O)[C@H](Cc2ccc(O)cc2)NC(=O)[C@@H]2CCCN2C(=O)[C@H](Cc2ccccc2)NC(=O)[C@H](CO)NC1=O)C(=O)N[C@H](C)C(=O)N[C@@H](Cc1c[nH]cn1)C(=O)N[C@@H](CCC(N)=O)C(=O)N[C@@H](CC(=O)O)C(=O)N[C@@H](CC(C)C)C(=O)N[C@H](C(N)=O)CSC3 [Ac-(06-34-18) Phe2 Tyr4 D-Ala6] (Ac-CSFPYRC[dA]HQDLC-NH2; linker 1-7-13 via TBMB)	True
CC(=O)N[C@H]1CSCc2cc3cc(c2)CSC[C@H](NC(=O)[C@H](CCCNC(=N)N)NC(=O)[C@H](Cc2ccc(O)cc2)NC(=O)[C@@H]2CCCN2C(=O)[C@H](Cc2ccccc2)NC(=O)[C@H](CO)NC1=O)C(=O)N[C@@H](CC(C)C)C(=O)N[C@@H](Cc1c[nH]cn1)C(=O)N[C@H](C)C(=O)N[C@@H](CC(=O)O)C(=O)N[C@@H](CC(C)C)C(=O)N[C@H](C(N)=O)CSC3 [Ac-(06-34-18) Phe2 Tyr4 D-Ala8] (Ac-CSFPYRCLH[dA]DLC-NH2; linker 1-7-13 via TBMB)	False
CC(=O)N[C@H]1CSCc2cc3cc(c2)CSC[C@H](NC(=O)[C@H](CCCNC(=N)N)NC(=O)[C@H](C)NC(=O)[C@@H]2CCCN2C(=O)[C@H](Cc2c[nH]c4ccccc24)NC(=O)[C@H](CO)NC1=O)C(=O)N[C@@H](CC(C)C)C(=O)N[C@@H](Cc1c[nH]cn1)C(=O)N[C@@H](CCC(N)=O)C(=O)N[C@H](C)C(=O)N[C@@H](CC(C)C)C(=O)N[C@H](C(N)=O)CSC3 [Ac-(06-34-18) D-Ala9] (Ac-CSWPARCLHQ[dA]LC-NH2; linker 1-7-13 via TBMB)	False

Hi, just wondering whether CC(=O)N[C@H]1CSCc2cc3cc(c2)CSC[C@H](NC(=O)[C@H](CCCNC(=N)N)NC(=O)[C@H](C)NC(=O)[C@@H]2CCCN2C(=O)[C@H](Cc2c[nH]c4ccccc24)NC(=O)[C@H](CO)NC1=O)C(=O)N[C@H](C)C(=O)N[C@@H](Cc1c[nH]cn1)C(=O)N[C@@H](CCC(N)=O)C(=O)N[C@@H](CC(=O)O)C(=O)N[C@@H](CC(C)C)C(=O)N[C@H](C(N)=O)CSC3 [Ac-(06-34-18) D-Ala6] (Ac-CSWPARC[dA]HQDLC-NH2; linker 1-7-13 via TBMB) shows F (Kivar/KiWT) of 600 or higher.
True

Please indicate if the recorded F (Kivar/KiWT) for CC(=O)N[C@H]1CSCc2cc3cc(c2)CSC[C@H](NC(=O)[C@H](CCCNC(=N)N)NC(=O)[C@H](Cc2ccc(O)cc2)NC(=O)[C@@H]2CCCN2C(=O)[C@H](Cc2ccccc2)NC(=O)[C@H](CO)NC1=O)C(=O)N[C@@H](CC(C)C)C(=O)N[C@@H](Cc1c[nH]cn1)C(=O)N[C@@H](CCC(N)=O)C(=O)N[C@H](C)C(=O)N[C@@H](CC(C)C)C(=O)N[C@H](C(N)=O)CSC3 [Ac-(06-34-18) Phe2 Tyr4 D-Ala9] (Ac-CSFPYRCLHQ[dA]LC-NH2; linker 1-7-13 via TBMB) meets or exceeds 600.
False
